- experimental_target: Prothrombin (Bos taurus)
- assay: bovine thrombin protease inhibition, confirmation, counter-screen for Rpn11 inhibitor project, biochemical, fluorescence polarization, single concentration (AID 602333);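 note: plate controls were thrombin with DMSO for no effect and buffer wells lacking thrombin for full effect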
- experimental_conditions: bovine thrombin cleavage of Ub4-pepOG, at 20 µM, active compounds read high
Screen size: about 1,900 compounds; about 240 (13%) were called active. The list is a sample of the results.
Field: inhibition. Provide a value for each of the compounds that follow.
Numbers only, in %.

Solved cases (2 shown):
{"compound_structure": "Oc1c(CN2CCCC2)cc(COCc2ccccc2)c2cccnc12", "experimental_target": "Prothrombin (Bos taurus)", "measured_endpoint": "inhibition", "measured_result": -28.1}
{"compound_structure": "Cc1nc2ccccc2nc(=O)c1NNc1ccc([N+](=O)[O-])cc1", "experimental_target": "Prothrombin (Bos taurus)", "measured_endpoint": "inhibition", "measured_result": 28.5}

// returns inhibition for "COC(=O)c1ccc(OCC(=O)NC(C)(C)C)cc1" with Prothrombin (Bos taurus); value = -4.55

All figures here come from PubChem BioAssay AID602333.
